Molecular target: VPS34 (Homo sapiens, UniProt Q8NEB9)
Construct: GST (N); host or cells: SF9 insect cells (baculovirus)
Sequence (Q8NEB9 whole entry): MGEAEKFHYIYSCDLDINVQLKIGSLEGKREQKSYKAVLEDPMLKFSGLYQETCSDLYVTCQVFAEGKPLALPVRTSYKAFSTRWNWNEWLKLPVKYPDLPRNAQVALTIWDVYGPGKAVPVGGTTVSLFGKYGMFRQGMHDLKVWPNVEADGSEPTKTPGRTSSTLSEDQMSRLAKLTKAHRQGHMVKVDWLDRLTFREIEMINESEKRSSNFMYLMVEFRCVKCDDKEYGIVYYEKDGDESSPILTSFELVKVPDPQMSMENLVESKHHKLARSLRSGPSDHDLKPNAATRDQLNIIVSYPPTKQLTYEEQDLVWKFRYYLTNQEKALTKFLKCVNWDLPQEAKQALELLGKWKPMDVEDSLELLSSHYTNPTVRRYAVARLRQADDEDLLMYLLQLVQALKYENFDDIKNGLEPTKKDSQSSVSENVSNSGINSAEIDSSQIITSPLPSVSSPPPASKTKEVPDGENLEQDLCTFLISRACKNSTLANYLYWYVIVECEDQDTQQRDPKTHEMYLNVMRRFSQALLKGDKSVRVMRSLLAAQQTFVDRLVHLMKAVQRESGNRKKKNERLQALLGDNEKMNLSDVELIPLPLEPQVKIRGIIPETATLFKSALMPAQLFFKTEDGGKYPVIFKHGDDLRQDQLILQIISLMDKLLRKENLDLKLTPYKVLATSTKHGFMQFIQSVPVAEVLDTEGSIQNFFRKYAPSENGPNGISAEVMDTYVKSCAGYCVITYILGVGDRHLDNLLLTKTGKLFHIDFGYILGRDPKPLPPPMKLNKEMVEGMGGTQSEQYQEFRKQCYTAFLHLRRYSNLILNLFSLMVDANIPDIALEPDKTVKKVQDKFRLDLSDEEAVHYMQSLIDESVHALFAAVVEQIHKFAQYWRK
Assay: Human VPS34 enzyme assay (Adapta TR-FRET)
Assay type: biochemical
Details: 1 h; at a 1.11 μM concentration; read-out: VPS34 Percent Inhibition
I'd be grateful if you could share measured inhibition at 1.11 µM for these entries.

In: Could you tell me which inhibition at 1.11 µM is on file for CCn1cc(-c2nnc[nH]2)cc1-c1ccnc(NC(C)=O)c1 [I-86] ?
Out: > 99%

In: Consider next the molecule CC(=O)Nc1cc(-c2cc(-c3nnc[nH]3)n(-c3ccc(Cl)cc3Cl)n2)ccn1 [I-15] in the same way.
Out: > 99%

In: What do you have for CC(=O)Nc1cc(-c2cc(-c3nnc[nH]3)n(CC3CC3)c2)c(C)cn1 [I-91] ?
Out: > 99%

In: // next record C=CCn1cc(-c2cc(NC(=O)C3CC3)ncc2C)cc1-c1nc[nH]n1 [I-88]
Out: 69%

In: Try Cc1cnc(NC(=O)C2CC2)cc1-c1cc(-c2nc[nH]n2)n(-c2ccccc2Cl)c1 [I-98] next.
Out: > 99%
